target: hERG K channel (Homo sapiens); construct: host or cells: CHO; test: hERG Q-Patch assay; format: cell-based; details: concentration 300 nM; CHO cells expressing hERG; K+ tail current 3 min after application; mean of two or three experiments
Below, each entry is listed with its recorded % block.
Supply the numeric figure in %, leaving out any unit text.

Below are worked cases with known answers.
MOLECULE	% block [%]
CCc1ccc(-c2nc(C(F)(F)F)sc2N2CCN(C(=O)Cn3nc(C)nc3C)[C@H](C)C2)cc1 [Example 9]	12
CCCc1ncc(-c2nc(C(F)(F)F)sc2N2CCN(C(=O)Cn3nc(C)nc3C)[C@H](C)C2)cn1 [Example 22]	1
Cc1nc(C)n(CC(=O)N2CCN(c3sc(C(F)(F)F)nc3-c3cnc(OC(C)C)nc3)C[C@H]2C)n1 [Example 27]	2
Cc1nc(C)n(CC(=O)N2CCN(c3sc(C(F)(F)F)nc3-c3cnc(OCCN(C)C)nc3)C[C@H]2C)n1 [Example 26]	−1
Cc1nc(C)n(CC(=O)N2CCN(c3sc(C(F)(F)F)nc3-c3ccc4c(c3)OCCO4)C[C@H]2C)n1 [Example 14]	5

Exercise: Could you please provide reported % block for Cc1nc(C)n(CC(=O)N2CCN(c3sc(C(F)(F)F)nc3-c3cnc(OC4CCC4)nc3)C[C@H]2C)n1 [Example 38] ? Thanks!
Key: 5

Exercise: Please give measured % block of the following entry: Cc1nc(C)n(CC(=O)N2CCN(c3sc(C(F)(F)F)nc3-c3cnc(N4CCN(C)CC4)nc3)C[C@H]2C)n1 [Example 37]
Key: 2

Exercise: Complete the entry with % block for Cc1nc(C)n(CC(=O)N2CCN(c3sc(C(F)(F)F)nc3-c3cnc4c(c3)CCCO4)C[C@H]2C)n1 [Example 39]
Key: 3

====

# Lookup of reported % block keyed by entry
molecular target: hERG K channel (Homo sapiens, UniProt Q12809); construct: host or cells: CHO; assay: hERG Q-Patch assay; format: cell-based; conditions: concentration 3000 nM; CHO cells expressing hERG; K+ tail current 3 min after application; mean of two or three experiments
Sequence (Q12809 whole entry): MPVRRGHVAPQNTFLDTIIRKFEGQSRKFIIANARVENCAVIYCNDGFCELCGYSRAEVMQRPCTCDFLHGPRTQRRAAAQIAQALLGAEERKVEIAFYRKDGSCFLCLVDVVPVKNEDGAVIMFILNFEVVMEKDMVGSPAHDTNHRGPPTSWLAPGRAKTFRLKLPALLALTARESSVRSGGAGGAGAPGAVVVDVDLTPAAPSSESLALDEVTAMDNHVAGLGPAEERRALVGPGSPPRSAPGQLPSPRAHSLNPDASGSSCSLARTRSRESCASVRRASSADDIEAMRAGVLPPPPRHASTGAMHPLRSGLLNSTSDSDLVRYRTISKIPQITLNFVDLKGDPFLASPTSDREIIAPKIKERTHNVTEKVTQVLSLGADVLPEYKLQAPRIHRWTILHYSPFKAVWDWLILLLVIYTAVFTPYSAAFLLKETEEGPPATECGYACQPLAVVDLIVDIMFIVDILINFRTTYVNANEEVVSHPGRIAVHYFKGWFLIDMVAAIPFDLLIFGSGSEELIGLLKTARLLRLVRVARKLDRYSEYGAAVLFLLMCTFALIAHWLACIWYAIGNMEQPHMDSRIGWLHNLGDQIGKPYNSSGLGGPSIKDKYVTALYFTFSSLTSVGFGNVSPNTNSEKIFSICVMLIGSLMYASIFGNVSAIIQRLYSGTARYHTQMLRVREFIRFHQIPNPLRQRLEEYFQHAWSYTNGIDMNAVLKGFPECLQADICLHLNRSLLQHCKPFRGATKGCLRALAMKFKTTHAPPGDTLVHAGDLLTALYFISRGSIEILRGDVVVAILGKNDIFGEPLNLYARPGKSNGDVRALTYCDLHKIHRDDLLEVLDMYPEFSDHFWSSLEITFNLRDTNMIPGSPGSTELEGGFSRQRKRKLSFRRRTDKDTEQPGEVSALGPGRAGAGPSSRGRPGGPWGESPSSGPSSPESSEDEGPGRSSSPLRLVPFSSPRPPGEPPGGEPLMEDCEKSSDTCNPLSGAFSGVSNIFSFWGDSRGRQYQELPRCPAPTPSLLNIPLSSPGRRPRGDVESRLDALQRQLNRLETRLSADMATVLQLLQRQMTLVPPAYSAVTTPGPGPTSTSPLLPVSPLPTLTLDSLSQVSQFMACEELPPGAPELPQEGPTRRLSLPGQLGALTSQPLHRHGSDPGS
API: value field is a number in %; no unit string.

COMPOUND	% block [%]
Cc1nc(CO)n(CC(=O)N2CCN(c3sc(C(F)(F)F)nc3-c3cnc(C(F)(F)F)nc3)C[C@H]2C)n1	1
Cc1nc(C)n(CC(=O)N2CCN(c3sc(C(F)(F)F)nc3-c3cnc(OC4COC4)nc3)C[C@H]2C)n1	6
Cc1nc(C)n(CC(=O)N2CCN(c3sc(C(F)(F)F)nc3-c3cnc(OCCN(C)C)nc3)C[C@H]2C)n1	−8
CCOc1ncc(-c2nc(C(F)(F)F)sc2N2CCN(C(=O)Cn3nc(CN(C)C)nc3C)[C@H](C)C2)cn1	26
Cc1nc(C)n(CC(=O)N2CCN(c3sc(C(F)(F)F)nc3-c3cnc(C4CC4)nc3)C[C@H]2C)n1	17
Cc1ncc(-c2nc(C(F)(F)F)sc2N2CCN(C(=O)Cn3nc(C)nc3C)[C@H](C)C2)cn1	−2

Exercise: Write down % block measured for item Cc1nc(C)n(CC(=O)N2CCN(c3sc(C(F)(F)F)nc3-c3cnc(CCN(C)C)nc3)C[C@H]2C)n1
Key: 0

====

Parameter % block: see the listing below.
molecular target: hERG K channel (Homo sapiens, UniProt Q12809); construct: host or cells: CHO; experiment: hERG Q-Patch assay; format: cell-based; settings: concentration 300 nM; CHO cells expressing hERG; K+ tail current 3 min after application; mean of two or three experiments
API: value field is a number in %; no unit string.

COMPOUND	% block, %
Cc1nc(C)n(CC(=O)N2CCN(c3sc(C(F)(F)F)nc3-c3ccc(F)cc3)C[C@H]2C)n1	11
Cc1nc(C(C)(C)O)nn1CC(=O)N1CCN(c2sc(C(F)(F)F)nc2-c2cnc(C(F)(F)F)nc2)C[C@H]1C	1
CCOc1ncc(-c2nc(C(F)(F)F)sc2N2CCN(C(=O)Cn3nc(C)nc3CC)[C@H](C)C2)cn1 (single isomer, unassigned)	4
Cc1ncc(-c2nc(C(F)(F)F)sc2N2CCN(C(=O)Cn3nc(C)nc3C)[C@H](C)C2)cn1	−1
Cc1nc(C)n(CC(=O)N2CCN(c3sc(C(F)(F)F)nc3-c3cnc(C(C)(F)F)nc3)C[C@H]2C)n1	2
CCOc1ncc(-c2nc(C(F)(F)F)sc2N2CCN(C(=O)Cn3nc(C)nc3C)[C@@H](C)C2)cn1	3

Could you now consider this next compound?
Exercise: Give the reported % block for this compound. COCCOc1ncc(-c2nc(C(F)(F)F)sc2N2CCN(C(=O)Cn3nc(C)nc3C)[C@H](C)C2)cn1
Key: −1

====

target: hERG K channel (Homo sapiens, UniProt Q12809); construct: host or cells: CHO; experiment: hERG Q-Patch assay; assay type: cell-based; settings: concentration 3000 nM; CHO cells expressing hERG; K+ tail current 3 min after application; mean of two or three experiments
Given measured % block, output Criterion met if it is greater than or equal to 30% and Criterion not met if not.

Exercise: Does the reported % block for Cc1nc(C)n(CC(=O)N2CCN(c3sc(C(F)(F)F)nc3-c3ccc(Cl)cc3)C[C@H]2C)n1 fall at or above the 30% mark?
Key: Criterion met

Exercise: Decide: is the reported value of % block for Cc1nc(C)n(CC(=O)N2CCN(c3sc(C(F)(F)F)nc3-c3cnc4c(c3)CCCO4)C[C@H]2C)n1 equal to or greater than 30%?
Key: Criterion not met

Exercise: Threshold query (% block >= 30%) on Cc1ccc(-c2nc(C(F)(F)F)sc2N2CCN(C(=O)Cn3nc(C)nc3C)[C@H](C)C2)cc1
Key: Criterion met

Exercise: In plain terms: is recorded % block at least 30% for Cc1nc(C)n(CC(=O)N2CCN(c3sc(C(F)(F)F)nc3-c3ccc(OC(C)C)cc3)C[C@H]2C)n1 ?
Key: Criterion met

Exercise: Say whether CCOc1ncc(-c2nc(C(F)(F)F)sc2N2CCN(C(=O)Cn3nc(C)nc3C)CC2)cn1 shows % block of 30% or more.
Key: Criterion not met

Exercise: Does % block meet or surpass 30% for CCc1nc(C)n(CC(=O)N2CCN(c3sc(C(F)(F)F)nc3-c3cnc(C(F)(F)F)nc3)C[C@H]2C)n1 (single isomer, unassigned) ?
Key: Criterion not met

Exercise: Can COc1ccc(-c2nc(C(F)(F)F)sc2N2CCN(C(=O)Cn3nc(C)nc3C)[C@H](C)C2)cn1 be said to have % block at or above 30%?
Key: Criterion not met

Exercise: Is % block for COCCOc1ncc(-c2nc(C(F)(F)F)sc2N2CCN(C(=O)Cn3nc(C)nc3C)[C@H](C)C2)cn1 at or above 30%?
Key: Criterion not met

Exercise: Can Cc1nc(C)n(CC(=O)N2CCN(c3sc(C(F)(F)F)nc3-c3cnc(C(C)(F)F)nc3)C[C@H]2C)n1 be said to have % block at or above 30%?
Key: Criterion not met

Exercise: Test whether the compound Cc1nc(C)n(CC(=O)N2CCN(c3sc(C(F)(F)F)nc3-c3cnc(OCC(F)(F)F)nc3)C[C@H]2C)n1 records % block of 30% or higher.
Key: Criterion not met

====

biological target: human CXCR3A (Homo sapiens, UniProt P49682); experiment: FLIPR assay (CXCL10-induced calcium signal in CHO-K1 cells); conditions: CHO-K1 cells expressing human CXCR3A coupled to Galpha(16); CXCL10 agonist 20 nM; mean values
Sequence (P49682 whole entry): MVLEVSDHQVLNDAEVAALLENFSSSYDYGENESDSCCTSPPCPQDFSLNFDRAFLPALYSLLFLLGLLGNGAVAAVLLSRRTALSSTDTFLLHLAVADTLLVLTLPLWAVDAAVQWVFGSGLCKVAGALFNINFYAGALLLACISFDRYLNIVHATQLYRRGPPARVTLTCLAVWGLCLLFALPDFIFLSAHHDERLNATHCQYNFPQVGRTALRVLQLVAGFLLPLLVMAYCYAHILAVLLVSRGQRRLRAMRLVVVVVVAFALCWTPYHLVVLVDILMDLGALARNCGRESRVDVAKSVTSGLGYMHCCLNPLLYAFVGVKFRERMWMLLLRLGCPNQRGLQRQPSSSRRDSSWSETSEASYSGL
// returns FALSE unless IC50 is strictly below 20 nM, in which case TRUE

These solved cases illustrate the format of a correct answer.
COMPOUND	ASSIGNED_CATEGORY
CCc1nc(C)n(CC(=O)N2CCN(c3sc(C(F)(F)F)nc3-c3cnc(C(F)(F)F)nc3)C[C@H]2C)n1 (single isomer, unassigned)	TRUE
CCOc1ccc(-c2nc(C(F)(F)F)sc2N2CCN(C(=O)Cn3nc(C)nc3C)[C@H](C)C2)cc1	TRUE
Cc1nc(C)n(CC(=O)N2CCN(c3sc(C(F)(F)F)nc3-c3cnc(C(C)(F)F)nc3)C[C@H]2C)n1	TRUE

Exercise: Is IC50 of Cc1nc(C)n(CC(=O)N2CCN(c3sc(C(F)(F)F)nc3-c3cnc(OCCN(C)C)nc3)C[C@H]2C)n1 strictly below 20 nM?
Key: FALSE

Exercise: Hi there! Is IC50 for Cc1nc(C)n(CC(=O)N2CCN(c3sc(C(F)(F)F)nc3-c3ccc(C#N)cc3)C[C@H]2C)n1 below 20 nM, do you know?
Key: FALSE

Exercise: Item COc1ccc(-c2nc(C(F)(F)F)sc2N2CCN(C(=O)Cn3nc(C)nc3C)[C@H](C)C2)cc1C : IC50 beneath 20 nM, strictly?
Key: FALSE
